Biological target: T1, human FAPα-His tag (Sino biological) (human, UniProt Q12884 26-760)
T1 construct: Bought protein; also called human FAPα-His protein; not shown: His tag
T1 sequence (looked up): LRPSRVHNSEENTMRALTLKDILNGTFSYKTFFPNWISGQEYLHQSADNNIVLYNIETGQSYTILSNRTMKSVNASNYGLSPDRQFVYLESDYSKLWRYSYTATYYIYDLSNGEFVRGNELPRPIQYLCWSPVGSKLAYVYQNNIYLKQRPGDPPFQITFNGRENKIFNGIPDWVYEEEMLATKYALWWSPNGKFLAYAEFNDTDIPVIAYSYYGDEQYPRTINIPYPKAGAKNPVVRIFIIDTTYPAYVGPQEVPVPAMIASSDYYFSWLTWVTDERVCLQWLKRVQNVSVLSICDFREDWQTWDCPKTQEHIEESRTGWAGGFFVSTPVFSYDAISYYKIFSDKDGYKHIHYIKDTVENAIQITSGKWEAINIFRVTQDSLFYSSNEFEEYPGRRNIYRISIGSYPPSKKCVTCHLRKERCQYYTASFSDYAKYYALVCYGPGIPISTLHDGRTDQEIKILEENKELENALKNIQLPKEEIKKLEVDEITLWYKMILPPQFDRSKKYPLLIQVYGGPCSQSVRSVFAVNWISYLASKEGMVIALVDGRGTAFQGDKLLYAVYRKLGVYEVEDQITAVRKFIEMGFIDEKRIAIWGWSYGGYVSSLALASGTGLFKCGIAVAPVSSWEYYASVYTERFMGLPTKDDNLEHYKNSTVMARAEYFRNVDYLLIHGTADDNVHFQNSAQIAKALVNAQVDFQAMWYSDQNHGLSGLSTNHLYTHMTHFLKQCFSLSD
Assay: competitive ELISA on coated human FAPα; competitor (detected): FAPα (BMK)-Bio
Kindly supply the reported OD 450 nm values for the records listed here.
Answers are plain numbers, in OD 450 nm.

Please review the entries below; each comes with its answer.
G52 (antibody, V domains shown, Tested as a mAb; also called FAP-G52; FAP-G52-Bio (biotin-conjugated form)) VH: EVQLLESGGDLVQPGGSLRLSCAASGFTFSSYAMSWVRQAPGKGLEWVSGISNGGDSIAYADSVKGRFTVFRDNAKNTLYLQMNSLRAEDTAIYYCARGNYYAHDDWGQGTLVTVSA VL: DIQLTQSPSSVSASVGDRVTITCRASQGVGSWLAWYQQKPGKPPKLLIYAASSLQSGVPSRFSGSGSGTDFTLTISSLQPEDFATYYCQQANSFPLTFGGGTKVEIK = 0.304
I37 (antibody, V domains shown, Tested as a mAb; also called FAP-I37) VH: QLQLVESGGGLVQPGGSLRLSCAASGFTFSSYAMSWVRQAPGKGLEWVSAISGSGGSTYYADSVKGRFTISRDNSKNTLYLQMNSLRAEDTAVYYCARDKPWGGSFDYWGQGTLVTVSA VL: DIQLTQSPSSLSASVGDRVTITCRASQGISSWLAWYQQKPGKAPKLLIYAASSLQSGVPSRFSGSGSGTDFTLTISSLQPEDFATYYCQQANSFPVTFGPGTKVDIK = 0.46
G14 (antibody, V domains shown, Full human antibody from a Fab phage library; Tested as a mAb (detected with anti-human IgG, captured on Protein A); also called FAP-G14; FAP-G14-Bio (biotin-conjugated form)) VH: QVQLLESGGGVVQPGRSLRLSCAASGFTFSSYAMHWVRQAPGKGLEWVAFISHDGNRNSYADSVRGRFTISRDNSKNTLYLQMNSLRAEDTAVYYCARDLGYYNGFSYWGQGTLVTVSA VL: DIVMTQSPSSVSASVGDRVTITCRASQGISSWLAWYQQKPGKAPKLLIYAASSLQSGVPSRFSGSGSGTDFTLTISSLQPEDFATYYCQQANSFPPTFGPGTKVDIK = 0.399

// next item, OD 450 nm requested
stdin: Give the value of OD 450 nm reported for the following: I38 (antibody, V domains shown, Tested as a mAb; also called FAP-I38) VH: EVQLVQSGAEVKEPGVSVKVSCKASGYTFASYGLSWVRLAPGQGLQWMGWISPYTPNPIYAPNFRDKVILTTDRSTNTAYLEVRSLRSDDTGLYYCARNHWVGRPTRAFDLWGQGTMVTVSA VL: EIVLTQSPGTLSLSPGERATLSCRASQTVSITHLAWYQQKPGQAPRLLTYGASARATGIPDRFSVSGSGTDFTLTITRLEPEDFAVYYCQHYGSSITFGGGTKVEIK
stdout: 0.154
